assay: Pharmacokinetic study in rats after oral administration of Epimedium extract (HPLC-MS/MS of plasma); format: in vivo, Male Sprague-Dawley rats; conditions: male, Sprague-Dawley; rat plasma, single oral dose of Epimedium extract 10 g/kg, n = 6
measured_property: half-life (h)

• COc1ccc(-c2oc3c(CC=C(C)C)c(OC4OC(CO)C(O)C(O)C4O)cc(O)c3c(=O)c2OC2OC(C)C(O)C(O)C2OC2OCC(O)C(O)C2O)cc1 (stereo not drawn) [epimedin B] = 3.64
• COc1ccc(-c2oc3c(CC=C(C)C)c(O)cc(O)c3c(=O)c2O[C@@H]2O[C@@H](C)[C@H](O)[C@@H](O)[C@H]2O[C@@H]2O[C@H](CO)[C@@H](O)[C@H](O)[C@H]2O)cc1 [sagittatoside A] = 13.8
• COc1ccc(-c2oc3c(CC=C(C)C)c(OC4OC(CO)C(O)C(O)C4O)cc(O)c3c(=O)c2OC2OC(C)C(O)C(O)C2OC2OC(C)C(O)C(O)C2O)cc1 (stereo not drawn) [epimedin C] = 17.9
• COc1ccc(-c2oc3c(CC=C(C)C)c(O)cc(O)c3c(=O)c2OC2OC(C)C(O)C(O)C2OC2OCC(O)C(O)C2O)cc1 (stereo not drawn) [sagittatoside B] = 9.38
• CC(C)=CCc1c(O)cc(O)c2c(=O)c(OC3OC(C)C(O)C(O)C3O)c(-c3ccc(O)cc3)oc12 (stereo not drawn) [baohuoside II] = 6.93
• O=C(/C=C/c1ccc(O)c(O)c1)O[C@@H]1C[C@@](O)(C(=O)O)C[C@@H](O)[C@@H]1O [neochlorogenic acid] = 0.64
• O=C(/C=C/c1ccc(O)c(O)c1)O[C@H]1[C@H](O)C[C@](O)(C(=O)O)C[C@H]1O [cryptochlorogenic acid] = 0.53
• O=C(/C=C/c1ccc(O)c(O)c1)O[C@@H]1C[C@](O)(C(=O)O)C[C@@H](O)[C@H]1O [chlorogenic acid] = 0.45
• COc1ccc2c(c1O)-c1c(O)c(OC)cc3c1[C@H](C2)[N+](C)(C)CC3 [magnoflorine] = 17.8
• COc1ccc(-c2oc3c(CC=C(C)C)c(O)cc(O)c3c(=O)c2O[C@@H]2O[C@@H](C)[C@H](O)[C@@H](O)[C@H]2O)cc1 [baohuoside I] = 13.2
• COc1ccc(-c2oc3c(CC=C(C)C)c(OC4OC(CO)C(O)C(O)C4O)cc(O)c3c(=O)c2OC2OC(C)C(O)C(O)C2OC2OC(CO)C(O)C(O)C2O)cc1 (stereo not drawn) [epimedin A] = 12.5
• COc1ccc(-c2oc3c(CC=C(C)C)c(O[C@@H]4O[C@H](CO)[C@@H](O)[C@H](O)[C@H]4O)cc(O)c3c(=O)c2O[C@@H]2O[C@@H](C)[C@H](O)[C@@H](O)[C@H]2O)cc1 [icariin] = 0.41

====

test: Pharmacokinetic study in rats after oral administration of Epimedium extract (HPLC-MS/MS of plasma); type: in vivo, Male Sprague-Dawley rats; conditions: rat plasma, single oral dose of Epimedium extract 10 g/kg, n = 6
measured_property: Tmax1 (min)

* O=C(/C=C/c1ccc(O)c(O)c1)O[C@@H]1C[C@@](O)(C(=O)O)C[C@@H](O)[C@@H]1O | 11.4
* COc1ccc(-c2oc3c(CC=C(C)C)c(O)cc(O)c3c(=O)c2O[C@@H]2O[C@@H](C)[C@H](O)[C@@H](O)[C@H]2O)cc1 [baohuoside I] | 22.8
* COc1ccc(-c2oc3c(CC=C(C)C)c(O)cc(O)c3c(=O)c2OC2OC(C)C(O)C(O)C2OC2OCC(O)C(O)C2O)cc1 (stereo not drawn) [sagittatoside B] | 12
* COc1ccc(-c2oc3c(CC=C(C)C)c(OC4OC(CO)C(O)C(O)C4O)cc(O)c3c(=O)c2OC2OC(C)C(O)C(O)C2OC2OCC(O)C(O)C2O)cc1 (stereo not drawn) [epimedin B] | 11.4
* COc1ccc(-c2oc3c(CC=C(C)C)c(O[C@@H]4O[C@H](CO)[C@@H](O)[C@H](O)[C@H]4O)cc(O)c3c(=O)c2O[C@@H]2O[C@@H](C)[C@H](O)[C@@H](O)[C@H]2O)cc1 | 9.6
* COc1ccc2c(c1O)-c1c(O)c(OC)cc3c1[C@H](C2)[N+](C)(C)CC3 | 10.8
* O=C(/C=C/c1ccc(O)c(O)c1)O[C@H]1[C@H](O)C[C@](O)(C(=O)O)C[C@H]1O | 11.4
* COc1ccc(-c2oc3c(CC=C(C)C)c(OC4OC(CO)C(O)C(O)C4O)cc(O)c3c(=O)c2OC2OC(C)C(O)C(O)C2OC2OC(CO)C(O)C(O)C2O)cc1 (stereo not drawn) [epimedin A] | 13.2
* COc1ccc(-c2oc3c(CC=C(C)C)c(OC4OC(CO)C(O)C(O)C4O)cc(O)c3c(=O)c2OC2OC(C)C(O)C(O)C2OC2OC(C)C(O)C(O)C2O)cc1 (stereo not drawn) [epimedin C] | 13.2
* O=C(/C=C/c1ccc(O)c(O)c1)O[C@@H]1C[C@](O)(C(=O)O)C[C@@H](O)[C@H]1O | 11.4
* CC(C)=CCc1c(O)cc(O)c2c(=O)c(OC3OC(C)C(O)C(O)C3O)c(-c3ccc(O)cc3)oc12 (stereo not drawn) [baohuoside II] | 10.8
* COc1ccc(-c2oc3c(CC=C(C)C)c(O)cc(O)c3c(=O)c2O[C@@H]2O[C@@H](C)[C@H](O)[C@@H](O)[C@H]2O[C@@H]2O[C@H](CO)[C@@H](O)[C@H](O)[C@H]2O)cc1 [sagittatoside A] | 10.8

====

test: Pharmacokinetic study in rats after oral administration of Epimedium extract (HPLC-MS/MS of plasma); format: in vivo, Male Sprague-Dawley rats; conditions: rat plasma, single oral dose of Epimedium extract 10 g/kg, n = 6
Overview of recorded Cmax1 for various molecules
measured_property: Cmax1 (ng/mL)

- COc1ccc(-c2oc3c(CC=C(C)C)c(OC4OC(CO)C(O)C(O)C4O)cc(O)c3c(=O)c2OC2OC(C)C(O)C(O)C2OC2OC(CO)C(O)C(O)C2O)cc1 (stereo not drawn) [epimedin A]: 82.79
- O=C(/C=C/c1ccc(O)c(O)c1)O[C@@H]1C[C@](O)(C(=O)O)C[C@@H](O)[C@H]1O: 540.28
- COc1ccc(-c2oc3c(CC=C(C)C)c(O)cc(O)c3c(=O)c2OC2OC(C)C(O)C(O)C2OC2OCC(O)C(O)C2O)cc1 (stereo not drawn) [sagittatoside B]: 19.38
- O=C(/C=C/c1ccc(O)c(O)c1)O[C@H]1[C@H](O)C[C@](O)(C(=O)O)C[C@H]1O: 269.77
- COc1ccc(-c2oc3c(CC=C(C)C)c(O)cc(O)c3c(=O)c2O[C@@H]2O[C@@H](C)[C@H](O)[C@@H](O)[C@H]2O)cc1 [baohuoside I]: 65.20
- COc1ccc(-c2oc3c(CC=C(C)C)c(O)cc(O)c3c(=O)c2O[C@@H]2O[C@@H](C)[C@H](O)[C@@H](O)[C@H]2O[C@@H]2O[C@H](CO)[C@@H](O)[C@H](O)[C@H]2O)cc1 [sagittatoside A]: 20.35

====

Each entry below carries its recorded Cmax1.
experiment: Pharmacokinetic study in rats after oral administration of Epimedium extract (HPLC-MS/MS of plasma); type: in vivo, Male Sprague-Dawley rats; details: rat plasma, single oral dose of Epimedium extract 10 g/kg, n = 6
measured_property: Cmax1 (ng/mL)

* COc1ccc(-c2oc3c(CC=C(C)C)c(OC4OC(CO)C(O)C(O)C4O)cc(O)c3c(=O)c2OC2OC(C)C(O)C(O)C2OC2OC(C)C(O)C(O)C2O)cc1 (stereo not drawn) [epimedin C] | 135.22
* COc1ccc(-c2oc3c(CC=C(C)C)c(OC4OC(CO)C(O)C(O)C4O)cc(O)c3c(=O)c2OC2OC(C)C(O)C(O)C2OC2OCC(O)C(O)C2O)cc1 (stereo not drawn) [epimedin B] | 316.73
* O=C(/C=C/c1ccc(O)c(O)c1)O[C@@H]1C[C@@](O)(C(=O)O)C[C@@H](O)[C@@H]1O [neochlorogenic acid] | 205.96
* COc1ccc2c(c1O)-c1c(O)c(OC)cc3c1[C@H](C2)[N+](C)(C)CC3 [magnoflorine] | 411.40
* COc1ccc(-c2oc3c(CC=C(C)C)c(O[C@@H]4O[C@H](CO)[C@@H](O)[C@H](O)[C@H]4O)cc(O)c3c(=O)c2O[C@@H]2O[C@@H](C)[C@H](O)[C@@H](O)[C@H]2O)cc1 [icariin] | 350.28
* CC(C)=CCc1c(O)cc(O)c2c(=O)c(OC3OC(C)C(O)C(O)C3O)c(-c3ccc(O)cc3)oc12 (stereo not drawn) [baohuoside II] | 6.87

====

experiment: Pharmacokinetic study in rats after oral administration of Epimedium extract (HPLC-MS/MS of plasma); type: in vivo, Male Sprague-Dawley rats; details: male, Sprague-Dawley; rat plasma, single oral dose of Epimedium extract 10 g/kg, n = 6; read-out: MRT(0-tn)
Values of MRT strictly less than 7 h map to t, and values of at least 7 h map to f.

* COc1ccc2c(c1O)-c1c(O)c(OC)cc3c1[C@H](C2)[N+](C)(C)CC3 | f
* COc1ccc(-c2oc3c(CC=C(C)C)c(O)cc(O)c3c(=O)c2O[C@@H]2O[C@@H](C)[C@H](O)[C@@H](O)[C@H]2O[C@@H]2O[C@H](CO)[C@@H](O)[C@H](O)[C@H]2O)cc1 [sagittatoside A] | f
* COc1ccc(-c2oc3c(CC=C(C)C)c(OC4OC(CO)C(O)C(O)C4O)cc(O)c3c(=O)c2OC2OC(C)C(O)C(O)C2OC2OC(CO)C(O)C(O)C2O)cc1 (stereo not drawn) [epimedin A] | f
* CC(C)=CCc1c(O)cc(O)c2c(=O)c(OC3OC(C)C(O)C(O)C3O)c(-c3ccc(O)cc3)oc12 (stereo not drawn) [baohuoside II] | f
* O=C(/C=C/c1ccc(O)c(O)c1)O[C@@H]1C[C@@](O)(C(=O)O)C[C@@H](O)[C@@H]1O | t
* O=C(/C=C/c1ccc(O)c(O)c1)O[C@H]1[C@H](O)C[C@](O)(C(=O)O)C[C@H]1O | t
* COc1ccc(-c2oc3c(CC=C(C)C)c(O)cc(O)c3c(=O)c2O[C@@H]2O[C@@H](C)[C@H](O)[C@@H](O)[C@H]2O)cc1 [baohuoside I] | f
* COc1ccc(-c2oc3c(CC=C(C)C)c(OC4OC(CO)C(O)C(O)C4O)cc(O)c3c(=O)c2OC2OC(C)C(O)C(O)C2OC2OC(C)C(O)C(O)C2O)cc1 (stereo not drawn) [epimedin C] | f
* O=C(/C=C/c1ccc(O)c(O)c1)O[C@@H]1C[C@](O)(C(=O)O)C[C@@H](O)[C@H]1O | t
* COc1ccc(-c2oc3c(CC=C(C)C)c(O[C@@H]4O[C@H](CO)[C@@H](O)[C@H](O)[C@H]4O)cc(O)c3c(=O)c2O[C@@H]2O[C@@H](C)[C@H](O)[C@@H](O)[C@H]2O)cc1 | t
* COc1ccc(-c2oc3c(CC=C(C)C)c(O)cc(O)c3c(=O)c2OC2OC(C)C(O)C(O)C2OC2OCC(O)C(O)C2O)cc1 (stereo not drawn) [sagittatoside B] | f
